Field: MIC. Provide a value for each of the molecules that follow.
- Test system: Pichia kudriavzevii
- EXPERIMENT NOTES: Antifungal activity against Candida krusei E28 after 48 hrs by broth microdilution method
- Format: functional
- MEASUREMENT CONTEXT: E28, 48 h

The value of MIC measured for the molecule "CC(=O)N[C@@H](Cc1ccccc1)C(=O)Oc1ccc(Cl)cc1C(=O)Nc1ccc(C(F)(F)F)cc1" turned out to be > 125 µM

The value of MIC measured for the molecule "CC(=O)N[C@@H](Cc1ccccc1)C(=O)Oc1cc(Cl)ccc1C(=O)Nc1ccc(C(F)(F)F)cc1" turned out to be > 125 µM

The value of MIC measured for the molecule "CC(=O)N[C@@H](Cc1ccccc1)C(=O)Oc1cc(Cl)ccc1C(=O)Nc1cccc(Cl)c1" turned out to be > 125 µM

The value of MIC measured for the molecule "CC(=O)N[C@@H](Cc1ccccc1)C(=O)Oc1cc(Cl)ccc1C(=O)Nc1ccc(Br)cc1" turned out to be > 125 µM

The value of MIC measured for the molecule "CC(=O)N[C@@H](Cc1ccccc1)C(=O)Oc1ccc(Cl)cc1C(=O)Nc1ccc(Br)cc1" turned out to be > 125 µM

Could I get MIC for every one of these entries?
1. CC(=O)N[C@@H](Cc1ccccc1)C(=O)Oc1ccc(Br)cc1C(=O)Nc1ccc(C(F)(F)F)cc1
2. OC(Cn1cncn1)(Cn1cncn1)c1ccc(F)cc1F
3. CC(=O)N[C@@H](Cc1ccccc1)C(=O)Oc1cc(Cl)ccc1C(=O)Nc1ccc(Cl)c(Cl)c1
4. CC(=O)N[C@@H](Cc1ccccc1)C(=O)Oc1ccc(Cl)cc1C(=O)Nc1ccc(Cl)cc1
5. CC(=O)N[C@@H](Cc1ccccc1)C(=O)Oc1cc(Cl)ccc1C(=O)Nc1ccc(Cl)cc1

Ans.
["125 µM", "15.6 µM", "> 125 µM", "> 125 µM", "> 125 µM"]

====

- System: Staphylococcus epidermidis
- EXPERIMENT NOTES: Antibacterial activity against Staphylococcus epidermidis H6966/08 after 48 hrs by broth microdilution method
- Format: functional
- MEASUREMENT CONTEXT: H6966/08, 48 h
// classify: if (MIC < 60 µM) 1.0 else 0.0

Qu. hey, is MIC for "CC(=O)N[C@@H](Cc1ccccc1)C(=O)Oc1cc(Cl)ccc1C(=O)Nc1ccc(Br)cc1" lower than 60 µM or not?
Ans. 1.0

Qu. hey, is MIC for "CC(=O)N[C@@H](Cc1ccccc1)C(=O)Oc1ccc(Br)cc1C(=O)Nc1ccc(C(F)(F)F)cc1" lower than 60 µM or not?
Ans. 0.0

Qu. hey, is MIC for "CC(=O)N[C@@H](Cc1ccccc1)C(=O)Oc1ccc(Cl)cc1C(=O)Nc1ccc(C(F)(F)F)cc1" lower than 60 µM or not?
Ans. 1.0

Qu. hey, is MIC for "CC(=O)N[C@@H](Cc1ccccc1)C(=O)Oc1cc(Cl)ccc1C(=O)Nc1ccc(C(F)(F)F)cc1" lower than 60 µM or not?
Ans. 0.0

Qu. hey, is MIC for "CC(=O)N[C@@H](Cc1ccccc1)C(=O)Oc1cc(Cl)ccc1C(=O)Nc1ccc(Cl)c(Cl)c1" lower than 60 µM or not?
Ans. 0.0

Next:
Qu. hey, is MIC for "CC(=O)N[C@@H](Cc1ccccc1)C(=O)Oc1ccc(Cl)cc1C(=O)Nc1ccc(Cl)cc1" lower than 60 µM or not?
Ans. 0.0

Qu. hey, is MIC for "CC(=O)N[C@@H](Cc1ccccc1)C(=O)Oc1cc(Cl)ccc1C(=O)Nc1cccc(Cl)c1" lower than 60 µM or not?
Ans. 0.0

Qu. hey, is MIC for "CC(=O)N[C@@H](Cc1ccccc1)C(=O)Oc1cc(Cl)ccc1C(=O)Nc1ccc(Cl)cc1" lower than 60 µM or not?
Ans. 1.0

====

- Test system: Mycobacterium avium
- EXPERIMENT NOTES: Antimycobacterial activity against Mycobacterium avium
- Format: functional
MEASUREMENT KIND: MIC (µM)
Numbers only, in µM.

The value of MIC measured for the compound "CC(=O)N[C@@H](Cc1ccccc1)C(=O)Oc1ccc(Cl)cc1C(=O)Nc1cccc(Cl)c1" turned out to be 1

The value of MIC measured for the compound "CC(=O)N[C@@H](Cc1ccccc1)C(=O)Oc1cc(Cl)ccc1C(=O)Nc1ccc(Cl)c(Cl)c1" turned out to be 1

Next:
The value of MIC measured for the compound "CC(=O)N[C@@H](Cc1ccccc1)C(=O)Oc1ccc(Cl)cc1C(=O)Nc1ccc(Cl)cc1" turned out to be 1

====

- System: Mycobacterium tuberculosis
- EXPERIMENT NOTES: Antimycobacterial activity against Mycobacterium tuberculosis H37Rv 331/88 after 21 days by micromethod
- Type: functional
- MEASUREMENT CONTEXT: H37Rv 331/88, 504 h
MEASUREMENT KIND: MIC (µM)
One number for each entry, in µM.

The value of MIC measured for the compound "CC(=O)N[C@@H](Cc1ccccc1)C(=O)Oc1ccc(Br)cc1C(=O)Nc1ccc(C(F)(F)F)cc1" turned out to be 0.5

The value of MIC measured for the compound "CC(=O)N[C@@H](Cc1ccccc1)C(=O)Oc1cc(Cl)ccc1C(=O)Nc1cccc(Cl)c1" turned out to be 4

The value of MIC measured for the compound "CC(=O)N[C@@H](Cc1ccccc1)C(=O)Oc1ccc(Cl)cc1C(=O)Nc1ccc(Cl)c(Cl)c1" turned out to be 1

Next:
The value of MIC measured for the compound "CC(=O)N[C@@H](Cc1ccccc1)C(=O)Oc1ccc(Cl)cc1C(=O)Nc1ccc(Cl)cc1" turned out to be 4

====

- System: Lichtheimia corymbifera
- EXPERIMENT NOTES: Antifungal activity against Absidia corymbifera 272 after 48 hrs by broth microdilution method
- Assay type: functional
- MEASUREMENT CONTEXT: Lichtheimia corymbifera, 272, 48 h
MEASUREMENT KIND: MIC

The value of MIC measured for the compound "CC(=O)N[C@@H](Cc1ccccc1)C(=O)Oc1cc(Cl)ccc1C(=O)Nc1ccc(C(F)(F)F)cc1" turned out to be > 125 µM

The value of MIC measured for the compound "CC(=O)N[C@@H](Cc1ccccc1)C(=O)Oc1cc(Cl)ccc1C(=O)Nc1ccc(Br)cc1" turned out to be 62.5 µM

The value of MIC measured for the compound "CC(=O)N[C@@H](Cc1ccccc1)C(=O)Oc1ccc(Cl)cc1C(=O)Nc1ccc(C(F)(F)F)cc1" turned out to be > 125 µM

The value of MIC measured for the compound "CC(=O)N[C@@H](Cc1ccccc1)C(=O)Oc1cc(Cl)ccc1C(=O)Nc1cccc(Cl)c1" turned out to be > 125 µM

The value of MIC measured for the compound "CC(=O)N[C@@H](Cc1ccccc1)C(=O)Oc1ccc(Cl)cc1C(=O)Nc1ccc(Cl)cc1" turned out to be 15.6 µM

The value of MIC measured for the compound "CC(=O)N[C@@H](Cc1ccccc1)C(=O)Oc1cc(Cl)ccc1C(=O)Nc1ccc(Cl)c(Cl)c1" turned out to be > 125 µM

Could I get MIC for every one of these entries?
1. CC(=O)N[C@@H](Cc1ccccc1)C(=O)Oc1cc(Cl)ccc1C(=O)Nc1ccc(Cl)cc1
2. OC(Cn1cncn1)(Cn1cncn1)c1ccc(F)cc1F
3. CC(=O)N[C@@H](Cc1ccccc1)C(=O)Oc1ccc(Br)cc1C(=O)Nc1ccc(C(F)(F)F)cc1
4. CC(=O)N[C@@H](Cc1ccccc1)C(=O)Oc1ccc(Cl)cc1C(=O)Nc1ccc(Br)cc1

Ans.
1. 7.81 µM
2. > 125 µM
3. 15.6 µM
4. > 125 µM

====

- Test system: Lichtheimia corymbifera
- EXPERIMENT NOTES: Antifungal activity against Absidia corymbifera 272 after 24 hrs by broth microdilution method
- Assay type: functional
- MEASUREMENT CONTEXT: Lichtheimia corymbifera, 272, 24 h
// classify: if (MIC < 60 µM) Yes else No

Reference set (3 entries):
Qu. hey, is MIC for OC(Cn1cncn1)(Cn1cncn1)c1ccc(F)cc1F [FLUCONAZOLE] lower than 60 µM or not?
Ans. No

Qu. hey, is MIC for "CC(=O)N[C@@H](Cc1ccccc1)C(=O)Oc1ccc(Cl)cc1C(=O)Nc1ccc(Br)cc1" lower than 60 µM or not?
Ans. No

Qu. hey, is MIC for "CC(=O)N[C@@H](Cc1ccccc1)C(=O)Oc1ccc(Br)cc1C(=O)Nc1ccc(C(F)(F)F)cc1" lower than 60 µM or not?
Ans. Yes

Next:
Qu. hey, is MIC for "CC(=O)N[C@@H](Cc1ccccc1)C(=O)Oc1cc(Cl)ccc1C(=O)Nc1ccc(Br)cc1" lower than 60 µM or not?
Ans. Yes

Qu. hey, is MIC for "CC(=O)N[C@@H](Cc1ccccc1)C(=O)Oc1cc(Cl)ccc1C(=O)Nc1ccc(C(F)(F)F)cc1" lower than 60 µM or not?
Ans. No

Qu. hey, is MIC for "CC(=O)N[C@@H](Cc1ccccc1)C(=O)Oc1cc(Cl)ccc1C(=O)Nc1cccc(Cl)c1" lower than 60 µM or not?
Ans. No

Qu. hey, is MIC for "CC(=O)N[C@@H](Cc1ccccc1)C(=O)Oc1ccc(Cl)cc1C(=O)Nc1ccc(C(F)(F)F)cc1" lower than 60 µM or not?
Ans. No

Qu. hey, is MIC for "CC(=O)N[C@@H](Cc1ccccc1)C(=O)Oc1cc(Cl)ccc1C(=O)Nc1ccc(Cl)cc1" lower than 60 µM or not?
Ans. Yes

Qu. hey, is MIC for "CC(=O)N[C@@H](Cc1ccccc1)C(=O)Oc1ccc(Cl)cc1C(=O)Nc1ccc(Cl)cc1" lower than 60 µM or not?
Ans. Yes

Qu. hey, is MIC for "CC(=O)N[C@@H](Cc1ccccc1)C(=O)Oc1cc(Cl)ccc1C(=O)Nc1ccc(Cl)c(Cl)c1" lower than 60 µM or not?
Ans. No
